Sourced from paper PMC4887296

- Measured On: Wt ypFabV (Yersinia pestis)
- Sequence (Q8Z9U1 whole entry, looked up): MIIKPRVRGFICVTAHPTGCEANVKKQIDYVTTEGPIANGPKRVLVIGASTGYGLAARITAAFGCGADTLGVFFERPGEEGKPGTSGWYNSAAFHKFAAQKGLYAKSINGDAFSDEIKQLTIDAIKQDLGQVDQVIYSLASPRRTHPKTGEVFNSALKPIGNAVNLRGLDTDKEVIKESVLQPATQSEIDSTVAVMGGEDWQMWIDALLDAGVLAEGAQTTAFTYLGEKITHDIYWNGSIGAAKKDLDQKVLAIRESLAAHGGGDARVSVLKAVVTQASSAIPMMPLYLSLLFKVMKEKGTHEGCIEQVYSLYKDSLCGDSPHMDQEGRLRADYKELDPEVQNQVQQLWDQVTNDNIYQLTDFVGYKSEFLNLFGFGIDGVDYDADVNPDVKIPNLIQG
- Protocol Description: biochemical
- Type: binding
- Recorded Conditions: read-out: Kd Wt ypFabV; pH 8
Measure: pKd
// pKd: -log10(molar conc.)

Reported pKd ( NC(=O)C1=CN([C@@H]2O[C@H](COP(=O)(O)OP(=O)(O)OC[C@H]3O[C@@H](n4cnc5c(N)ncnc54)[C@H](O)[C@@H]3O)[C@@H](O)[C@H]2O)C=CC1 [NADH] ) = 4.89
